Provenance of the data: patent US20240425460A1

- test method notes: physchem
- details: 37 °C, water, thermodynamic from solid
measured metric: solubility

Ask: Quote solubility reported for Br.Br.CCC[C@H](N[C@H]1CCc2cc(F)cc(F)c2C1)C(=O)Nc1cn(C(C)(C)CNCC(C)(C)C)cn1 [Form CSII] please.
Result: 19 to 38 mg/mL
